Taken from ChEMBL document CHEMBL5543149.

Reported EC50 values are given for each entry in this list.
Tested on: Human immunodeficiency virus 1
Assay: Antiviral activity against NNRTI-resistant HIV-1 harboring RES056 mutant infected in human MT4 cells assessed as protection against virus-induced cytopathic effect by MTT assay
Assay type: functional, organism-based
Details: Human immunodeficiency virus 1, MT4
Give just the number in nM; leave the unit off.

Solved cases (3 shown):
Cn1c(Cn2ccc(C(F)(F)F)c(Oc3cc(Cl)cc(Br)c3)c2=O)n[nH]c1=O
225
Cn1c(Cn2ccc(C(F)(F)F)c(Oc3cc(Cl)cc(-c4cc5ccccc5s4)c3)c2=O)n[nH]c1=O
185
COC(=O)c1ccc(-c2cc(Cl)cc(Oc3c(C(F)(F)F)ccn(Cc4n[nH]c(=O)n4C)c3=O)c2)cc1
177

Input: What value of EC50 has been reported for the following compound? "Cn1c(Cn2ccc(C(F)(F)F)c(Oc3cc(Cl)cc(C#N)c3)c2=O)n[nH]c1=O"
Output: 128

Input: Subsequent entry: "Cn1c(Cn2ccc(C(F)(F)F)c(Oc3cc(Cl)cc(-c4ccncc4)c3)c2=O)n[nH]c1=O"
Output: 962

----------
Experiment: Oral bioavailability in Sprague-Dawley rat at 10 mg/kg measured upto 24 hrs by LC-MS/MS analysis
Format: ADME, organism-based
Conditions: in vivo
MEASURED_PARAMETER: bioavailability (%)
Entry rule: numbers only, all in %.

Input: Would you kindly share the measured bioavailability for "Cn1c(Cn2ccc(C(F)(F)F)c(Oc3cc(Cl)cc(-c4ccc(Br)cc4)c3)c2=O)n[nH]c1=O" ?
Output: 109

----------
Assay: Clearance in Sprague-Dawley rat at 2 mg/kg, iv measured upto 24 hrs by LC-MS/MS analysis
Assay type: ADME, organism-based
Conditions: in vivo
MEASURED_PARAMETER: clearance

Input: Request the reported clearance associated with "Cn1c(Cn2ccc(C(F)(F)F)c(Oc3cc(Cl)cc(-c4ccc(Br)cc4)c3)c2=O)n[nH]c1=O"
Output: 4.35 mL/min/kg

----------
Test: Selectivity index, ratio of CC50 for cytotoxicity against human MT4 cells assessed as reduction in cell viability by MTT assay to EC50 for antiviral activity against wild type HIV-1 IIIB infected in human MT4 cells assessed as protection against virus-induced cytopathic effect
Type: toxicity, cell-based
Settings: read-out: Ratio CC50/EC50
MEASURED_PARAMETER: selectivity ratio

Please review the entries below; each comes with its answer.
Cn1c(Cn2ccc(C(F)(F)F)c(Oc3cc(Cl)cc(-c4cc5ccccc5s4)c3)c2=O)n[nH]c1=O
8420
Cn1c(Cn2ccc(C(F)(F)F)c(Oc3cc(Cl)cc(C(N)=O)c3)c2=O)n[nH]c1=O
14
Cn1c(Cn2ccc(C(F)(F)F)c(Oc3cc(Cl)cc(C(=O)O)c3)c2=O)n[nH]c1=O
6
Cn1c(Cn2ccc(C(F)(F)F)c(Oc3cc(Cl)cc(-c4cccs4)c3)c2=O)n[nH]c1=O
48

Input: Sample "Cn1c(Cn2ccc(C(F)(F)F)c(Oc3cc(Cl)cc(-c4ccoc4)c3)c2=O)n[nH]c1=O" — what was its selectivity ratio?
Output: 205

Input: Next entry: "Cn1c(Cn2ccc(C(F)(F)F)c(Oc3cc(Cl)cc(-c4cccnc4)c3)c2=O)n[nH]c1=O"
Output: 210

Input: Also need "Cn1c(Cn2ccc(C(F)(F)F)c(Oc3cc(Cl)cc(-c4ccc(F)cc4)c3)c2=O)n[nH]c1=O" , thanks.
Output: 161
